Target: T1, 4H3632-bA
T1 chain: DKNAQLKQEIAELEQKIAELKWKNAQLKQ
Assay: two-hybrid library CCNG1;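 also: natural log of median RNA to DNA barcode read ratio; higher means stronger binding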
endpoint: interaction score

Worked cases, interaction score given:
DKIAQLKQKNAELKQKNAELKWKIAQLKQ [4H3070-bA] ... -1.37
DEIAQLEQKIAELKQENAELEWKIAQLKQ [4H342-bA] ... 0.725
DEIAQLEQENAELEQENAELEWEIAQLEQ [4H145-bA] ... -1.06
DKNAQLKQEIAELEQKIAELKWKNAQLKQ [4H3632-bA] ... 1.23
DENAQLEQKIAELKQEIAELEWENAQLEQ [4H1347-bA] ... 1.92

IN: Returns the measured interaction score for the input binder. Input: DKIAQLKQENAELEQEIAELEWENAQLEQ [4H2691-bA]
OUT: -0.861

IN: // query: DKIAQLKQEIAELEQKNAELKWENAQLEQ [4H2619-bA]
OUT: -1.09

src = paper PMC10397247
